System: Nonstructural protein 5A (Hepatitis C virus), Q5L478 [UNDEFINED MUTATION]
Assay: Inhibition of HCV genotype 1a NS5A L31V mutant assessed as reduction in viral RNA level by cell based real time PCR method
Settings: Hepatitis C virus subtype 1a
value.kind: log10 EC90 (log10 of the value in nM)
Please be aware that the numbers have been log10-transformed from EC90 in nM.

I'd like to know its log10 EC90. The molecule in question is COC(=O)N[C@@H](CC1CCOCC1)C(=O)N1CCC[C@H]1c1ncc(-c2ccc3c(c2)cc2n3[C@H](c3ccccc3)Oc3cc(-c4cnc([C@@H]5CCCN5C(=O)[C@@H](NC(=O)OC)C(C)C)[nH]4)ccc3-2)[nH]1
-0.48

Please answer likewise for CC[C@H](C)[C@H](NC(=O)OC)C(=O)N1CCC[C@H]1c1ncc(-c2ccc3c(c2)O[C@@H](c2ccccc2)n2c-3cc3cc(-c4cnc([C@@H]5CCCN5C(=O)[C@@H](NC(=O)OC)[C@@H](C)CC)[nH]4)ccc32)[nH]1
0.26

Please answer likewise for CC[C@H](C)[C@H](NC(=O)OC)C(=O)N1CCC[C@H]1c1ncc(-c2ccc3c(c2)O[C@@H](c2ccccc2)n2c-3cc3cc(-c4cnc([C@@H]5CCCN5C(=O)[C@@H](NC(=O)OC)C(C)C)[nH]4)ccc32)[nH]1
0.63

Please answer likewise for CCN(CC)[C@@H](C(=O)N1CCC[C@H]1c1ncc(-c2ccc3c(c2)O[C@@H](c2ccccc2)n2c-3cc3cc(-c4cnc([C@@H]5CCCN5C(=O)[C@@H](c5ccccc5)N(CC)CC)[nH]4)ccc32)[nH]1)c1ccccc1
-0.22

Please answer likewise for O=C([C@@H](c1ccccc1)N1CCCC1)N1CCC[C@H]1c1ncc(-c2ccc3c(c2)O[C@@H](c2ccccc2)n2c-3cc3cc(-c4cnc([C@@H]5CCCN5C(=O)[C@@H](c5ccccc5)N5CCCC5)[nH]4)ccc32)[nH]1
0.59

Please answer likewise for COC(=O)N[C@H](C(=O)N1CCC[C@H]1c1ncc(-c2ccc3c(c2)O[C@@H](c2ccccc2)n2c-3cc3cc(-c4cnc([C@@H]5CCCN5C(=O)[C@@H](NC(=O)OC)C5CCC(F)(F)CC5)[nH]4)ccc32)[nH]1)C1CCC(F)(F)CC1
-0.19

Please answer likewise for COC(=O)N[C@H](C(=O)N1CCC[C@H]1c1ncc(-c2ccc3c(c2)O[C@@H](c2ccccc2)n2c-3cc3cc(-c4cnc([C@@H]5CCCN5C(=O)[C@@H](NC(=O)OC)C5CCC(F)(F)CC5)[nH]4)ccc32)[nH]1)C(C)C
-0.05

Please answer likewise for COC(=O)N[C@H](C(=O)N1CCC[C@H]1c1ncc(-c2ccc3c(c2)O[C@@H](c2ccccc2)n2c-3cc3cc(-c4cnc([C@@H]5CCCN5C(=O)C5(NC(=O)OC)CCCCC5)[nH]4)ccc32)[nH]1)C(C)C
1.17

Please answer likewise for COC(=O)N[C@@H](CC1CCOCC1)C(=O)N1CCC[C@H]1c1ncc(-c2ccc3c(c2)O[C@@H](c2ccccc2)n2c-3cc3cc(-c4cnc([C@@H]5CCCN5C(=O)[C@H](CC5CCOCC5)NC(=O)OC)[nH]4)ccc32)[nH]1
-0.11

Please answer likewise for COC(=O)N[C@H](C(=O)N1CCC[C@H]1c1nc(-c2ccc3c(c2)O[C@@H](c2ccccc2)n2c-3cc3cc(-c4c[nH]c([C@@H]5CCCN5C(=O)[C@@H](NC(=O)OC)C(C)C)n4)ccc32)c[nH]1)C(C)C
0.00

Please answer likewise for COC(=O)N[C@@H](C)C(=O)N1CCC[C@H]1c1ncc(-c2ccc3c(c2)O[C@@H](c2ccccc2)n2c-3cc3cc(-c4cnc([C@@H]5CCCN5C(=O)[C@H](C)NC(=O)OC)[nH]4)ccc32)[nH]1
0.81

Please answer likewise for COC(=O)N[C@H](C(=O)N1CCC[C@H]1c1ncc(-c2ccc3c(c2)O[C@@H](c2ccccc2)n2c-3cc3cc(-c4cnc([C@@H]5CCCN5C(=O)[C@@H](NC(=O)OC)C5CCCCC5)[nH]4)ccc32)[nH]1)C1CCCCC1
1.04
